Recorded measurements of glycan array binding signal (z-score), one per entry
Target: GlcA(b1-3)Gal
Test: glycan array binding signal (z-score within array); higher = stronger binding
Conditions: glycan notation: IUPAC condensed, linker removed
About 410 targets per protein were measured; listed, in parts, are those with the strongest signals and a random draw of the rest.

Before answering, review these 3 worked examples.
BINDER	glycan array binding signal (z-score)
SefD (Salmonella enterica), Q9L6K6 (protein) GAYIIRGQNNSAHKLRIRIGGEDWQPDNSGIGMVSHSDFTNEFNIYYFGNGDIPVDTYLISIYATEIEL	-0.456
HysACBM (Streptococcus pneumoniae), Q54873 (protein) KNLVENGDFGQTEDGSSPWTGSKAQGWSAWVDQKNSADASTRVIEAKDGAITISSHEKLRAALHRMVPIEAKKKYKLRFKIKTDNKIGIAKVRIIEESGKDKRLWNSATTSGTKDWQTIEADYSPTLDVDKIKLELFYETGTGTVSFKDIELVEVADQLS	0.267
Epa1to9 (Candida glabrata) (protein) MGSSHHHHHHSSGLVPRGSHMTSSNDISLASKDPTTFPLGCSPDITTPKKGLSMELYSYDFRKKGSYPCWDAAYLDPNYPRTGYKSHRLLAKVDGVTGNINFYYHATKGCTPQLGHLPASYNYPKPLTMTNFTMLLYGYFRPKVTGFHTFTISADDLLFVNFGAGNAFDCCRRDSSADHFGNYQAYAIWGSKTAKDELTVHLDAGVYYPIRLFYNNRDYHGALSFTFKTESNENTVSDFSEYFFSLDDTEEGCPGLISYD	-0.315

Here's the next entry for you.
Consider LecB PA14 (Pseudomonas aeruginosa) (protein) MATQGVFTLPANTQFGVTAFANSAGTQTVNVQVNNETVATFTGQSTNNAIIGSKVLNSGGGGKVQILVSVNGRSSDLVSAQVILANELNFALVGSEDSTDNDYNDAVVVINWPLG . Its measured glycan array binding signal (z-score) is 0.136

Provenance of the data: the supplement of paper PMC8728848
